Tested on: LXRa homodimer (NR concentration 270 nM)
protocolNotes: PBM binding z-score (relative to random genomic background probes); higher = stronger binding; sequences stand for … in GC…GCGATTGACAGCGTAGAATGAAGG
assayEndpoint: PBM binding z-score
Numbers only.

biosequence: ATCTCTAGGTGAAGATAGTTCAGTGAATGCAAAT
valueReported: 0.126
//
biosequence: CCGACTGGGGCAGAAAGGTTTCCATACCATCCGG
valueReported: -0.629
//
biosequence: AGAACGAGGGCACGCTGCGTTGATAGCAGAGTAG
valueReported: -0.7

Then there is this sequence:
Req: # return PBM binding z-score for `AGTCAAGGTTCATCTAGGTAACGTAAGATATGCT` , test system: LXRa homodimer (NR concentration 270 nM)
Resp: 1.89

From: the supplement of paper PMC6555819
